# tested_target: T1, TRAB1 (Oryza sativa, UniProt Q6ZDF3 1-374)
# T1 sequence: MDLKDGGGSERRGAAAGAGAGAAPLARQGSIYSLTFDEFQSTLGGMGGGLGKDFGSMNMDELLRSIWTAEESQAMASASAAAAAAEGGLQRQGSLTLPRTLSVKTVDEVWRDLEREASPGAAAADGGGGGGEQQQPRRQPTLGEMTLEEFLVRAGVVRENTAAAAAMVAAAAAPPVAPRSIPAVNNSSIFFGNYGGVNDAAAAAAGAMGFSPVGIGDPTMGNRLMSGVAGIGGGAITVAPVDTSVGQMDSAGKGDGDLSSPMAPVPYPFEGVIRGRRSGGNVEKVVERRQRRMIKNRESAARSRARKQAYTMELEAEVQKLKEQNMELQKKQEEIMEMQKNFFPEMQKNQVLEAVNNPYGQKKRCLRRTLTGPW
# test_details: EMSA; Chemiluminescent Nucleic Acid Detection Module Kit (Thermo) per manufacturer; binding buffer, salt, pH and temperature not stated
# experimental_parameters: protein: recombinant; tags: His (pCold vector); chain copies: 2; label: biotin
outcome_measure: binding result

- binder: "Probe 12 (dsDNA) DNA 1: AGTCAAATTAGCCACGTAGGCGACACGTCAGCTAAAACCGC DNA 2: GCGGTTTTAGCTGACGTGTCGCCTACGTGGCTAATTTGACT"
  recorded_result: "no binding"
- binder: "Probe 5 (dsDNA) DNA 1: ATAAGACAAGTGGTCAAACGTTGCAAACAAAAACTCAAAA DNA 2: TTTTGAGTTTTTGTTTGCAACGTTTGACCACTTGTCTTAT"
  recorded_result: "no binding"
- binder: "Probe 2 (dsDNA) DNA 1: AGCTTTGAAACATTTTCCACGTTTCATGAACCAACACTCAAT DNA 2: ATTGAGTGTTGGTTCATGAAACGTGGAAAATGTTTCAAAGCT"
  recorded_result: "no binding"
